B1: ZC3H15 (parent)
chain: ENLFTGEDLDELEEELNTLDLEE

Variants of: B1
Assay: protein stability index of a GFP-peptide fusion (GPS, HEK-293T) (PSI 1-6); higher = more stable;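 further: lentivirally expressed fusions sorted by FACS into six bins by GFP to DsRed ratio, PSI derived from sequencing read proportions per bin multiplied by bin number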
Conditions: c terminus: native
Answer each item with its documented protein stability index.
One number for each entry.

Check out these entries, answers already filled in.
Mutant label | protein stability index
D10L | 4.28
T5S | 4.32
E15W | 4.08

Would you be so kind as to report protein stability index for each listed record?
1. D8G
2. E13P
3. G6K
4. L9A

1: 5.03; 2: 3.56; 3: 4.79; 4: 4.25

Batch of 5 variants: report protein stability index for each.
1. N2M
2. E11I
3. L9E
4. L3S
5. D10E

[4.08, 4.71, 4.54, 5.2, 5.05]

Provide protein stability index values for the following items, in order.
1. D20K
2. E14N
3. L3R
4. L16E

1. 5.11
2. 4.37
3. 4.71
4. 3.7

Could you report protein stability index for every entry in the following list?
1. G6T
2. D10Y
3. L12P
4. T18D
5. E15H
6. E13D
7. L16G

1. 4.81
2. 3.33
3. 4.82
4. 4.24
5. 4.29
6. 4.46
7. 4.11

Data credit: the supplement of paper PMC10567573
